Measurement record for Insulin receptor (Homo sapiens); quantity recorded: IC50.
quantity_kind: IC50 (nM)

Some compounds with recorded IC50:
>>> print(df.to_string())
                               smiles_input                    target_entity  units  reported_value
0  COc1cc(N2CC[C@@H](N(C)C)C2)ccc1Nc1ncc(Cl)c(Nc2ccccc2P(C)(C)=O)n1  Insulin receptor (Homo sapiens)     nM             489
1  COc1cc(OCCCN2CCCC2)ccc1Nc1ncc(Cl)c(Nc2ccccc2P(C)(C)=O)n1  Insulin receptor (Homo sapiens)     nM             284

I: CCP(=O)(CC)c1ccccc1Nc1nc(Nc2ccc(N3CCC(N4CCN(C)CC4)CC3)cc2OC)ncc1Cl
II: COc1cc(P(C)(C)=O)ccc1Nc1ncc(Cl)c(Nc2ccccc2C(N)=O)n1
III: COc1cc(N2CCN(C)CC2)ccc1Nc1ncc(Cl)c(Nc2ccccc2P(C)(C)=O)n1
Exam item: list the entries in increasing order of IC50. To answer, write out the labels according to the requested order.
II, III, I

====

assay: Clearance in CD rat at 3 mg/kg, iv by LC-MS/MS analysis; assay type: ADME, organism-based; conditions: in vivo
quantity_kind: clearance (mL/min/kg)

Some molecules with recorded clearance:
>>> df
                               smiles_input  quantity_kind  reported_value
0  COc1cc(N2CCN(C)CC2)ccc1Nc1ncc(Cl)c(Nc2ccccc2P(C)(C)=O)n1      clearance            15.2
1  COc1cc(N2CCC(O)CC2)ccc1Nc1ncc(Cl)c(Nc2ccccc2P(C)(C)=O)n1      clearance            10.7
2  COc1cc(N2CCN(CCO)CC2)ccc1Nc1ncc(Cl)c(Nc2ccccc2P(C)(C)=O)n1      clearance            35.8
3  COc1cc(N2CCC(N3CCOCC3)CC2)ccc1Nc1ncc(Cl)c(Nc2ccccc2P(C)(C)=O)n1      clearance            2.83
4  COc1cc(C2CCN(C)CC2)ccc1Nc1ncc(Cl)c(Nc2ccccc2P(C)(C)=O)n1      clearance            31.8

A: COc1cc(N2CCC(N3CCCC3)CC2)ccc1Nc1ncc(Cl)c(Nc2ccccc2P(C)(C)=O)n1
B: COc1cc(OC2CCN(C)CC2)ccc1Nc1ncc(Cl)c(Nc2ccccc2P(C)(C)=O)n1
C: COc1cc(N2CCC(CN3CCC3)CC2)ccc1Nc1ncc(Cl)c(Nc2ccccc2P(C)(C)=O)n1
Exam item: list the entries in increasing order of clearance. To answer, write out the labels according to the requested order.
C, B, A

====

target: Insulin-like growth factor 1 receptor (Homo sapiens, UniProt P08069)
Sequence (P08069 31-736 limits assumed): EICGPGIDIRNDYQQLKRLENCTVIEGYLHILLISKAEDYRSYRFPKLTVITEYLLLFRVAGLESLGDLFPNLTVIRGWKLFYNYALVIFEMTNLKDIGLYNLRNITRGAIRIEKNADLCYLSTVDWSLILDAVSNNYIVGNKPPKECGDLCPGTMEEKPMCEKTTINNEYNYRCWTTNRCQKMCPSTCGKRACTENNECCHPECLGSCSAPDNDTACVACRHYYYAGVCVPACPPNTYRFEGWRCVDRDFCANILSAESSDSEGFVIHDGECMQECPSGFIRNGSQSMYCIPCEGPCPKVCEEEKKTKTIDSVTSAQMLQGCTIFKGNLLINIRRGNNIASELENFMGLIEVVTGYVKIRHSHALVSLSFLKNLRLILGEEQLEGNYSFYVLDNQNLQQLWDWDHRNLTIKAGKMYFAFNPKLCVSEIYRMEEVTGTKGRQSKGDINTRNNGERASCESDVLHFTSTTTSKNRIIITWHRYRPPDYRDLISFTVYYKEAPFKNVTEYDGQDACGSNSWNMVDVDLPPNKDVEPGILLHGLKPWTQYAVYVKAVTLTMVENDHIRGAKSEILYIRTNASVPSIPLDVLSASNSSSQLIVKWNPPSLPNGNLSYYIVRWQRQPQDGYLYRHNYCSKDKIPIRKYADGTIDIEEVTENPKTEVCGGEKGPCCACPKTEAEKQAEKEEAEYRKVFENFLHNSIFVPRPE
Sequence (P08069 741-1367 limits assumed): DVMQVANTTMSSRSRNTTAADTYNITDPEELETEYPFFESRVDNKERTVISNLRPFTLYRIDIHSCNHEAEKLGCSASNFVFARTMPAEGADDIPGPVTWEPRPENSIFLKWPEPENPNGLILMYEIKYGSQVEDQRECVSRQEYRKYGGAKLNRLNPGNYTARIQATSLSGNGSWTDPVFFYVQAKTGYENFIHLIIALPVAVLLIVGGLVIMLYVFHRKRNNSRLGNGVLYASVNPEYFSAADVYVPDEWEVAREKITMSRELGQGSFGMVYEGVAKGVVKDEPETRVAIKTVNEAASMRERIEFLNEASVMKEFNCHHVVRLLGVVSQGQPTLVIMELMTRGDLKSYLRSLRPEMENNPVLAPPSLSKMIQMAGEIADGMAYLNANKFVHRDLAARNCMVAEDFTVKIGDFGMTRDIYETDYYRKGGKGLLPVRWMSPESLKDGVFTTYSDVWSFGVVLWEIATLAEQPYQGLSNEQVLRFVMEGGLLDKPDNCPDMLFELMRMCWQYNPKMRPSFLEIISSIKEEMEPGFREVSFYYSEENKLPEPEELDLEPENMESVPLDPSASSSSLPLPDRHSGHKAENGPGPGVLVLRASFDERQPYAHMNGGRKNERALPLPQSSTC
quantity_kind: IC50 (nM)

Some compounds with recorded IC50:
In [3]: df
Out[3]:
                                   compound                             target_entity  units  reported_value
0  COc1cc(N2CCC(N3CCN(C)CC3)CC2)ccc1Nc1ncc(Cl)c(Nc2ccccc2I)n1  Insulin-like growth factor 1 receptor (Homo sapiens, UniProt P08069)     nM             6.2
1  COc1cc(OC2CCN(C)C2)ccc1Nc1ncc(Cl)c(Nc2ccccc2P(C)(C)=O)n1 (stereo not drawn)  Insulin-like growth factor 1 receptor (Homo sapiens, UniProt P08069)     nM             100
2  COc1cc(N2CCC(N3CCN(C)CC3)CC2)ccc1Nc1ncc(Cl)c(Nc2ccccc2C(C)=O)n1  Insulin-like growth factor 1 receptor (Homo sapiens, UniProt P08069)     nM            1.33
3  COc1cc(P(C)(C)=O)ccc1Nc1ncc(Cl)c(Nc2ccccc2C(C)=O)n1  Insulin-like growth factor 1 receptor (Homo sapiens, UniProt P08069)     nM            0.47
4  CNC(=O)CN1CCN(c2ccc(Nc3ncc(Cl)c(Nc4ccccc4P(C)(C)=O)n3)c(OC)c2)CC1  Insulin-like growth factor 1 receptor (Homo sapiens, UniProt P08069)     nM             125
5  COc1cc(N2CCC(N3CCN(C)CC3)CC2)ccc1Nc1ncc(Cl)c(Nc2ccccc2S(C)(=O)=O)n1  Insulin-like growth factor 1 receptor (Homo sapiens, UniProt P08069)     nM            0.76

A: CCOc1cc(N2CCC(N3CCN(C)CC3)CC2)ccc1Nc1ncc(Cl)c(Nc2ccccc2P(C)(C)=O)n1
B: COc1cc(N2CCC(N3CCN(C)CC3)CC2)ccc1Nc1ncc(Cl)c(Nc2ccccc2OC)n1
Dear colleague, could you let me know whether A or B has the lower recorded IC50? Thanks. Use the label to indicate which entry you chose.
B
